Test system: Streptococcus
Assay: In vitro antimicrobial activity against aerobic bacteria Streptococcus C 24
Assay type: functional
Measured Quantity: MIC (µg/mL)

INSERT INTO measurements (compound, target_desc, measured_quantity, obs_value) VALUES
  ('CC[C@H]1OC(=O)C[C@@H](O)[C@H](C)[C@@H](O[C@@H]2O[C@H](C)[C@@H](O[C@H]3C[C@@](C)(O)[C@@H](O)[C@H](C)O3)[C@H](N(C)C)[C@H]2O)[C@@H](CC=O)C[C@@H](C)C(=O)/C=C/C(C)=C/[C@@H]1CO[C@@H]1O[C@H](C)[C@@H](O)[C@@H](OC)[C@H]1OC [TYLOSIN]', 'Streptococcus', 'MIC', 0.25),
  ('CC[C@H]1OC(=O)C[C@@H](O)[C@H](C)[C@@H](O[C@@H]2O[C@H](C)[C@@H](O)[C@H](N(C)C)[C@H]2O)[C@@H](CCOc2ccccc2)C[C@@H](C)C(=O)/C=C/C(C)=C/[C@@H]1CO[C@@H]1O[C@H](C)[C@@H](O)[C@@H](OC)[C@H]1OC', 'Streptococcus', 'MIC', 0.25),
  ('CC[C@H]1OC(=O)C[C@@H](O)[C@H](C)[C@@H](O[C@@H]2O[C@H](C)[C@@H](O[C@H]3C[C@@](C)(O)[C@@H](O)[C@H](C)O3)[C@H](N(C)C)[C@H]2O)[C@@H](CC=O)C[C@@H](C)C(=O)/C=C/C(C)=C/[C@@H]1CO', 'Streptococcus', 'MIC', 0.25),
  ('CC[C@H]1C[C@@H](C)C(=O)/C=C/C(C)=C/[C@H](CO[C@@H]2O[C@H](C)[C@@H](O)[C@@H](OC)[C@H]2OC)[C@@H](CC)OC(=O)C[C@@H](O)[C@H](C)[C@H]1O[C@@H]1O[C@H](C)[C@@H](O)[C@H](N(C)C)[C@H]1O', 'Streptococcus', 'MIC', 0.5),
  ('CC[C@H]1OC(=O)C[C@@H](O)[C@H](C)[C@@H](O[C@@H]2O[C@H](C)[C@@H](O[C@H]3C[C@@](C)(O)[C@@H](O)[C@H](C)O3)[C@H](N(C)C)[C@H]2O)[C@@H](CCOc2ccccc2)C[C@@H](C)C(=O)/C=C/C(C)=C/[C@@H]1CO[C@@H]1O[C@H](C)[C@@H](O)[C@@H](OC)[C@H]1OC', 'Streptococcus', 'MIC', 1),
  ('CC[C@H]1OC(=O)[C@H](C)[C@@H](O[C@H]2C[C@@](C)(OC)[C@@H](O)[C@H](C)O2)[C@H](C)[C@@H](O[C@@H]2O[C@H](C)C[C@H](N(C)C)[C@H]2O)[C@](C)(O)C[C@@H](C)C(=O)[C@H](C)[C@@H](O)[C@]1(C)O [ERYTHROMYCIN]', 'Streptococcus', 'MIC', 0.12),
  ('CC[C@H]1OC(=O)C[C@@H](O)[C@H](C)[C@@H](O[C@@H]2O[C@H](C)[C@@H](O)[C@H](N(C)C)[C@H]2O)[C@@H](CCN2C(=O)c3ccccc3C2=O)C[C@@H](C)C(=O)/C=C/C(C)=C/[C@@H]1CO[C@@H]1O[C@H](C)[C@@H](O)[C@@H](OC)[C@H]1OC', 'Streptococcus', 'MIC', 0.5),
  ('CC[C@H]1OC(=O)C[C@@H](O)[C@H](C)[C@@H](O[C@@H]2O[C@H](C)[C@@H](O)[C@H](N(C)C)[C@H]2O)[C@@H](CC=O)C[C@@H](C)C(=O)/C=C/C(C)=C/[C@@H]1CO', 'Streptococcus', 'MIC', 0.5),
  ('CC[C@H]1OC(=O)C[C@@H](O)[C@H](C)[C@@H](O[C@@H]2O[C@H](C)[C@@H](O)[C@H](N(C)C)[C@H]2O)[C@@H](CCN=[N+]=[N-])C[C@@H](C)C(=O)/C=C/C(C)=C/[C@@H]1CO[C@@H]1O[C@H](C)[C@@H](O)[C@@H](OC)[C@H]1OC', 'Streptococcus', 'MIC', 0.5);

###

System: Streptococcus pyogenes
Test: In vitro antimicrobial activity against Streptococcus pyogenes C203
Format: functional
Note to self: use true only for MIC readings below 2 µg/mL; a reading exactly at 2 µg/mL still gets false.

INSERT INTO assay_data (smiles, class) VALUES
  ('CC[C@H]1OC(=O)C[C@@H](O)[C@H](C)[C@@H](O[C@@H]2O[C@H](C)[C@@H](O)[C@H](N(C)C)[C@H]2O)[C@@H](C)C[C@@H](C)C(=O)/C=C/C(C)=C/[C@@H]1CO', 'false'),
  ('CC[C@H]1OC(=O)C[C@@H](O)[C@H](C)[C@@H](O[C@@H]2O[C@H](C)[C@@H](O)[C@H](N(C)C)[C@H]2O)[C@@H](CCOc2cccc(N(C)C)c2)C[C@@H](C)C(=O)/C=C/C(C)=C/[C@@H]1CO[C@@H]1O[C@H](C)[C@@H](O)[C@@H](OC)[C@H]1OC', 'true'),
  ('CC[C@H]1OC(=O)C[C@@H](O)[C@H](C)[C@@H](O[C@@H]2O[C@H](C)[C@@H](O)[C@H](N(C)C)[C@H]2O)[C@@H](CCO)C[C@@H](C)C(=O)/C=C/C(C)=C/[C@@H]1CO', 'false'),
  ('CC[C@H]1C[C@@H](C)C(=O)/C=C/C(C)=C/[C@H](CO[C@@H]2O[C@H](C)[C@@H](O)[C@@H](OC)[C@H]2OC)[C@@H](CC)OC(=O)C[C@@H](O)[C@H](C)[C@H]1O[C@@H]1O[C@H](C)[C@@H](O)[C@H](N(C)C)[C@H]1O', 'true'),
  ('CC[C@H]1OC(=O)C[C@@H](O)[C@H](C)[C@@H](O[C@@H]2O[C@H](C)[C@@H](O[C@H]3C[C@@](C)(O)[C@@H](O)[C@H](C)O3)[C@H](N(C)C)[C@H]2O)[C@@H](CCF)C[C@@H](C)C(=O)/C=C/C(C)=C/[C@@H]1CO[C@@H]1O[C@H](C)[C@@H](O)[C@@H](OC)[C@H]1OC', 'false'),
  ('CC[C@H]1OC(=O)C[C@@H](O)[C@H](C)[C@@H](O[C@@H]2O[C@H](C)[C@@H](O[C@H]3C[C@@](C)(O)[C@@H](O)[C@H](C)O3)[C@H](N(C)C)[C@H]2O)[C@@H](C)C[C@@H](C)C(=O)/C=C/C(C)=C/[C@@H]1CO[C@@H]1O[C@H](C)[C@@H](O)[C@@H](OC)[C@H]1OC', 'true'),
  ('CC[C@H]1OC(=O)C[C@@H](O)[C@H](C)[C@@H](O[C@@H]2O[C@H](C)[C@@H](O)[C@H](N(C)C)[C@H]2O)[C@@H](CCOCCc2ccccc2)C[C@@H](C)C(=O)/C=C/C(C)=C/[C@@H]1CO[C@@H]1O[C@H](C)[C@@H](O)[C@@H](OC)[C@H]1OC', 'true');

###

Tested on: Streptococcus pyogenes
Experiment: In vitro antimicrobial activity against Streptococcus pyogenes C203
Assay type: functional
Measured Quantity: MIC (µg/mL)

INSERT INTO assay_data (smiles, obs_value) VALUES
  ('CC[C@H]1OC(=O)C[C@@H](O)[C@H](C)[C@@H](O[C@@H]2O[C@H](C)[C@@H](O)[C@H](N(C)C)[C@H]2O)[C@@H](CCOc2ccc(Oc3ccccc3)cc2)C[C@@H](C)C(=O)/C=C/C(C)=C/[C@@H]1CO[C@@H]1O[C@H](C)[C@@H](O)[C@@H](OC)[C@H]1OC', 0.25),
  ('CC[C@H]1OC(=O)C[C@@H](O)[C@H](C)[C@@H](O[C@@H]2O[C@H](C)[C@@H](O[C@H]3C[C@@](C)(O)[C@@H](O)[C@H](C)O3)[C@H](N(C)C)[C@H]2O)[C@@H](CCOc2ccccc2)C[C@@H](C)C(=O)/C=C/C(C)=C/[C@@H]1CO[C@@H]1O[C@H](C)[C@@H](O)[C@@H](O)[C@H]1OC', 4),
  ('CC[C@H]1OC(=O)C[C@@H](O)[C@H](C)[C@@H](O[C@@H]2O[C@H](C)[C@@H](O[C@H]3C[C@@](C)(O)[C@@H](O)[C@H](C)O3)[C@H](N(C)C)[C@H]2O)[C@@H](CCN2C(=O)c3ccccc3C2=O)C[C@@H](C)C(=O)/C=C/C(C)=C/[C@@H]1CO[C@@H]1O[C@H](C)[C@@H](O)[C@@H](OC)[C@H]1OC', 2);

###

System: Staphylococcus epidermidis
Test: In vitro antimicrobial activity against Staphylococcus epidermidis EPI1
Format: functional
The reader will find reported MIC values listed item by item below.
Measured Quantity: MIC (µg/mL)

INSERT INTO measurements (compound, measured_quantity, obs_value) VALUES
  ('CC[C@H]1OC(=O)C[C@@H](O)[C@H](C)[C@@H](O[C@@H]2O[C@H](C)[C@@H](O)[C@H](N(C)C)[C@H]2O)[C@@H](CCOS(=O)(=O)c2ccc(C)cc2)C[C@@H](C)C(=O)/C=C/C(C)=C/[C@@H]1CO[C@@H]1O[C@H](C)[C@@H](O)[C@@H](OC)[C@H]1OC', 'MIC', 0.5),
  ('CC[C@H]1OC(=O)C[C@@H](O)[C@H](C)[C@@H](O[C@@H]2O[C@H](C)[C@@H](O)[C@H](N(C)C)[C@H]2O)[C@@H](CCOc2ccc(C=O)cc2)C[C@@H](C)C(=O)/C=C/C(C)=C/[C@@H]1CO[C@@H]1O[C@H](C)[C@@H](O)[C@@H](OC)[C@H]1OC', 'MIC', 0.25),
  ('CC[C@H]1OC(=O)C[C@@H](O)[C@H](C)[C@@H](O[C@@H]2O[C@H](C)[C@@H](O)[C@H](N(C)C)[C@H]2O)[C@@H](CCOc2ccccc2)C[C@@H](C)C(=O)/C=C/C(C)=C/[C@@H]1CO[C@@H]1O[C@H](C)[C@@H](O)[C@@H](OC)[C@H]1OC', 'MIC', 0.25),
  ('CC[C@H]1OC(=O)C[C@@H](O)[C@H](C)[C@@H](O[C@@H]2O[C@H](C)[C@@H](O)[C@H](N(C)C)[C@H]2O)[C@@H](CCOS(=O)c2ccccc2)C[C@@H](C)C(=O)/C=C/C(C)=C/[C@@H]1CO[C@@H]1O[C@H](C)[C@@H](O)[C@@H](OC)[C@H]1OC (some centres undefined)', 'MIC', 0.25);
